# tested_on: L-sorbose dehydrogenase (Gluconobacter oxydans)
# Sequence (Q47944 whole entry): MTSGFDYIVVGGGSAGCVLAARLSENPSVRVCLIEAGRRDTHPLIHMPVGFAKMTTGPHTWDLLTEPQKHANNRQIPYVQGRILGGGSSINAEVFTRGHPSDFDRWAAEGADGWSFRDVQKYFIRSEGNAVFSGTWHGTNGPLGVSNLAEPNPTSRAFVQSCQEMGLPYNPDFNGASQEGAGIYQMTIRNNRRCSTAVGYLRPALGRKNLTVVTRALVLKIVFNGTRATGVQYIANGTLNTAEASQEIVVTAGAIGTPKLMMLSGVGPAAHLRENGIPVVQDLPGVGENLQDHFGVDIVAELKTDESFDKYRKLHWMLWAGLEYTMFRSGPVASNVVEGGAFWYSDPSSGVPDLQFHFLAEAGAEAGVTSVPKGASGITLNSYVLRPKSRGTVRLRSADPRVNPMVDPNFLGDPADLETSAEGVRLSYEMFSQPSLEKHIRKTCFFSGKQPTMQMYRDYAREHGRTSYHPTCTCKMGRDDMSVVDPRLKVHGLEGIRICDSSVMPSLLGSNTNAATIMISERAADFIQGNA
# protocol_description: biochemical
# Type: biochemical, Gluconobacter oxydans UV-10
value_type: inhibition at 4240 µM (%)
Just the number please, in %, no unit attached.

Illustrative cases are given below, each with its answer.
>>> number("C=C[C@H]1C[N@@]2CC[C@H]1C[C@H]2[C@H](O)c1ccnc2ccc(OC)cc12 [Quinine]")
30.5
>>> number("O=C(O)CI [Mono-Iodo acetate]")
34.6
>>> number("[N-]=[N+]=[N-] [Sodium Azide]")
0
>>> number("O=C(O)CF [Sodium Fluoro acetate]")
8.6

## Input GET /values?readout=inhibition at 4240 µM&system=L-sorbose dehydrogenase (Gluconobacter oxydans)&item= CCN1C(=O)C=CC1=O [N-Ethyl-maleimide]
## Output 0

* * *

# tested_on: L-sorbose dehydrogenase (Gluconobacter oxydans)
# protocol_description: Effect of metal ions on the enzyme activity
# Format: biochemical, Gluconobacter oxydans UV-10
# experimental_parameters: metal 0.8 mM
value_type: Relative activity (%)
The figure you give is taken to be in %; do not add the unit.

>>> number("O=S(=O)([O-])[O-].[Cu+2]")
0
>>> number("O.O.O.O.O.O.[Cl-].[Cl-].[Mg+2]")
83.3
>>> number("O.O.O.O.O.O.O.O=S(=O)([O-])[O-].[Mg+2]")
100
>>> number("O.O.O.O.O.O.[Cl-].[Cl-].[Co+2]")
118.4

We now examine a further compound.
## Input State the recorded Relative activity (%) for this entry: [Ca+2].[Cl-].[Cl-]
## Output 100

* * *

Measured Relative activity (%) of individual entries
# tested_on: L-sorbose dehydrogenase (Gluconobacter oxydans)
# protocol_description: Effect of metal ions on the enzyme activity
# Type: biochemical, Gluconobacter oxydans UV-10
# experimental_parameters: metal 0.4 mM

Answered examples (6):
>>> result("O.O=S(=O)([O-])[O-].[Mn+2]")
"100%"
>>> result("O.O.O.O.O.O.O.O=S(=O)([O-])[O-].[Zn+2]")
"100%"
>>> result("O.O.O.O.O.O.O=S(=O)([O-])[O-].[Ni+2]")
"100%"
>>> result("[Ca+2].[Cl-].[Cl-]")
"100%"
>>> result("O.O.[Cl][Cu][Cl]")
"0%"
>>> result("O.O.O.O.[Cl][Mn][Cl]")
"100%"

## Input # lookup: Relative activity (%) of O.O.O.O.O.O.[Cl-].[Cl-].[Co+2]
## Output 109.2%

## Input Recorded Relative activity (%) of O.O.O.O.O.O.O.O=S(=O)([O-])[O-].[Mg+2] , please.
## Output 100%
